system tested: T1, human ERBB3 on transiently transfected HEK-293 cells (human, UniProt P21860 20-1342)
T1 construct: also called human ERBB3+ HEK-293 cells
procedure details: flow cytometry, human ERBB3-transfected HEK-293
outcome measure: maximum MFI, fold over isotype control background

binder: 15E02 IgG1null (antibody, V domains shown, Human IgG1null and human Ckappa) VH: QVQLVESGGGLVKPGGSLRLSCAASGFTFSDYGMSWIRQAPGKGLEWVSTISDSGTTIYYADNVKGRFTISRDNAKNSLYLQMNSLRAEDTAVYYCAREYGDYDGFDYWGQGTLVTVSS VL: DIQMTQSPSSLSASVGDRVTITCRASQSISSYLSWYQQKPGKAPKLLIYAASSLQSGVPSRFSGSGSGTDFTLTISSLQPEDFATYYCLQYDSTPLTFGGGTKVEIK
meas value: > 20 fold

binder: MH5 IgG1null (antibody, V domains shown, Designer (Maximally Humanized) clone; Human IgG1null and human Ckappa) VH: QVQLVESGGGLVKPGGSLRLSCAASGFTFSDYGMSWIRQAPGKGLEWVSTISDSGSTIYYADSVKGRFTISRDNAKNSLYLQMNSLRAEDTAVYYCAREYGDYDGFDYWGQGTLVTVSS VL: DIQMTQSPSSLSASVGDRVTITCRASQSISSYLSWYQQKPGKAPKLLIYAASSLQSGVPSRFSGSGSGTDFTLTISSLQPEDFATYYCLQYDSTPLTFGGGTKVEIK
meas value: > 20 fold

The record that follows has no maximum MFI, fold over isotype control background shown yet.
# maximum MFI, fold over isotype control background (binder: 15D10 IgG1null (antibody, V domains shown, Human IgG1null (L234A, L235A, G237A) and human Ckappa) VH: QVQLVESGGGLVKPGGSLRLSCAASGFTFSDYGMSWIRQAPGKGLEWVSTISDGGSYTYYADNVKGRFTISRDNAKNSLYLQMNSLRAEDTAVYYCAREWGDYDGFDFWGQGTLVTVSS VL: DIQMTQSPSSLSASVGDRVTITCRASQSISSYLSWYQQKPGKAPKLLIYAASTLQSGVPSRFSGSGSGTDFTLTISSLQPEDFATYYCLQYDSTPLTFGGGTKVEIK ) is > 20 fold
